- protocolDetails: Stability in rat plasma
- experimentalContext: 37° C., 15 minutes
Reported Percentage of the compound remaining in plasma values follow for various compounds
I only need the number, in %, no unit after it.

// below: answered compounds
compound	unitDescriptor	assayValue
CCC(NC(=O)OCOc1ccc([N+](=O)[O-])c2cccnc12)C(=O)OC (stereo not shown)	%	0.0
CC(C)OC(=O)[C@H](C)NP(=O)(OCOc1ccc([N+](=O)[O-])c2cccnc12)Oc1ccccc1 (stereo partly shown)	%	0.0
CC1CN(C(=O)OCOc2ccc([N+](=O)[O-])c3cccnc23)CCO1 (stereo not shown)	%	92.4

Moving on to the next compound.
The measured Percentage of the compound remaining in plasma associated with "O=[N+]([O-])c1ccc(O)c2ncccc12" reads 93.9

---

- protocolDetails: Stability in dog plasma
- Assay type: in vitro ADME
- experimentalContext: 37° C., 60 minutes
Mark yes only when Percentage of the compound remaining in plasma stays strictly below 90%. Values equal to the cut-off are no.

# example entries with known answers
compound	group
CCC(CC)C(=O)OCOc1ccc([N+](=O)[O-])c2cccnc12 [Compound 5]	yes
C[C@@H]1CN(C(=O)OCOc2ccc([N+](=O)[O-])c3cccnc23)C[C@H](C)O1 [Compound 59]	no
CN1CCN(C(=O)OCOc2ccc([N+](=O)[O-])c3cccnc23)CC1 [Compound 6]	no
O=C(OCOc1ccc([N+](=O)[O-])c2cccnc12)N1CCOCC1 [Compound 7]	no
CC(C)OC(=O)[C@H](C)NP(=O)(OCOc1ccc([N+](=O)[O-])c2cccnc12)Oc1ccccc1 (stereo partly shown) [Compound 75]	yes

Threshold test, Percentage of the compound remaining in plasma < 90%: COC(=O)[C@H](Cc1ccccc1)NC(=O)OCOc1ccc([N+](=O)[O-])c2cccnc12 [Compound 58]
yes

Threshold test, Percentage of the compound remaining in plasma < 90%: O=[N+]([O-])c1ccc(O)c2ncccc12 [Nitroxoline]
no

Threshold test, Percentage of the compound remaining in plasma < 90%: COC(=O)CNC(=O)OCOc1ccc([N+](=O)[O-])c2cccnc12 [Compound 53]
yes

---

Reported Percentage of the compound remaining in plasma values follow for various compounds
- protocolDetails: Stability in dog plasma
- Format: in vitro ADME
- experimentalContext: 37° C., 30 minutes
I only need the number, in %, no unit after it.

compound	assayValue
CN1CCN(C(=O)OCOc2ccc([N+](=O)[O-])c3cccnc23)CC1	111.9

The measured Percentage of the compound remaining in plasma associated with CCC(NC(=O)OCOc1ccc([N+](=O)[O-])c2cccnc12)C(=O)OC (centres unmarked) reads 99.2

The measured Percentage of the compound remaining in plasma associated with CCC(CC)C(=O)OC(C)Oc1ccc([N+](=O)[O-])c2cccnc12 (centres unmarked) reads 93.7

The measured Percentage of the compound remaining in plasma associated with "COC(=O)[C@H](Cc1ccccc1)NC(=O)OCOc1ccc([N+](=O)[O-])c2cccnc12" reads 90.4

The measured Percentage of the compound remaining in plasma associated with "O=[N+]([O-])c1ccc(O)c2ncccc12" reads 101.1

---

- protocolDetails: Determination of water solubility in phosphate buffer
- Type: physicochemical
- experimentalContext: aqueous buffer, thermodynamic from solid; phosphate buffer pH 7.4, room temperature, 24 hours
- Excerpt: Experimental instruments: 96-well filter plate (MSHVN4510 or MSHVN4550, Millipore); electronic digital display vortex mixer (MS3 Digital, IKA); multi-purpose vacuum pump (circulating water type, SHB-111, Zhengzhou Greatwall Scientific Industrial and Trade Co., Ltd.); balance (XSLT05, Mettler-Toledo); comfortable mixer (Eppendorf AG 22331 Hamburg, Eppendorf); liquid chromatography (LC-3AD, Shimadzu); mass spectrometry (API4000, Applied Biosystems, USA); sample injector (Anylytics AG System, CTC). […]
measurementKind: solubility at 24 h

molecule	solubility at 24 h
CCCCCCCCCCCC(=O)OCOc1ccc([N+](=O)[O-])c2cccnc12	< 0.25 µg/mL

The measured solubility at 24 h associated with "CC(C)OC(=O)OCOP(=O)(O)OCOc1ccc([N+](=O)[O-])c2cccnc12" reads 1040 µg/mL

The measured solubility at 24 h associated with CCC(NC(=O)OCOc1ccc([N+](=O)[O-])c2cccnc12)C(=O)OC (stereo not shown) reads 24.4 µg/mL

The measured solubility at 24 h associated with "CCCCCC(=O)OCOc1ccc([N+](=O)[O-])c2cccnc12" reads 7.4 µg/mL

The measured solubility at 24 h associated with "CC(=O)N[C@@H](CO)C(=O)N1CCC[C@H]1C(=O)OCOc1ccc([N+](=O)[O-])c2cccnc12" reads < 0.25 µg/mL

---

- protocolDetails: Stability in rat liver microsome
- experimentalContext: with coenzyme, 2 μM, 37° C., 30 minutes
Mark 1 only when Percentage of the compound remaining in rat liver microsome stays strictly below 4%. Values equal to the cut-off are -1.

# example entries with known answers
compound	group
COC(=O)CNC(=O)OCOc1ccc([N+](=O)[O-])c2cccnc12 [Compound 53]	-1
CN1CCN(C(=O)OCOc2ccc([N+](=O)[O-])c3cccnc23)CC1 [Compound 6]	-1
CCC(C)C(NC(=O)OCOc1ccc([N+](=O)[O-])c2cccnc12)C(=O)OC (stereo not drawn) [Compound 55]	-1
CC(C)(C)OC(=O)NCCCCCCC(=O)OCOc1ccc([N+](=O)[O-])c2cccnc12 [Compound 12]	1
CC(=O)OCOc1ccc([N+](=O)[O-])c2cccnc12 [Compound 1, (5-nitroquinolin-8-yloxy)methyl acetate]	1

Note: attention shifts to another entry.
Threshold test, Percentage of the compound remaining in rat liver microsome < 4%: CC(=O)N(C)CC(=O)OCc1cccnc1N(C)C(=O)OCOc1ccc([N+](=O)[O-])c2cccnc12 [Compound 65]
-1

---

- protocolDetails: Stability in dog liver microsome
- experimentalContext: with coenzyme, 2 μM, 37° C., 30 minutes
measurementKind: Percentage of the compound remaining in dog liver microsome (%)
I only need the number, in %, no unit after it.

// below: answered molecules
molecule	assayValue
CCC(=O)OC(C)Oc1ccc([N+](=O)[O-])c2cccnc12 (stereo not drawn)	0.03
COC(=O)CN(C)C(=O)Oc1ccc([N+](=O)[O-])c2cccnc12	0.03
CC(OC(=O)C(C)C)Oc1ccc([N+](=O)[O-])c2cccnc12 (stereo not drawn)	0.01
CC(C)(C)OC(=O)NCCCCCCC(=O)OCOc1ccc([N+](=O)[O-])c2cccnc12	0.00
CC(C)C(=O)OCOc1ccc([N+](=O)[O-])c2cccnc12	0.16
CN(CC(=O)OCc1cccnc1N(C)C(=O)OCOc1ccc([N+](=O)[O-])c2cccnc12)C(=O)C(C)(C)C	13.05
CN1CCN(C(=O)OCOc2ccc([N+](=O)[O-])c3cccnc23)CC1	38.76
CCC(C)C(NC(=O)OCOc1ccc([N+](=O)[O-])c2cccnc12)C(=O)OC (stereo not drawn)	70.73

The measured Percentage of the compound remaining in dog liver microsome associated with "CCC(=O)OCOc1ccc([N+](=O)[O-])c2cccnc12" reads 0.13

The measured Percentage of the compound remaining in dog liver microsome associated with CN(CC(O)CO)C(=O)OCOc1ccc([N+](=O)[O-])c2cccnc12 (stereo not drawn) reads 85.67

The measured Percentage of the compound remaining in dog liver microsome associated with "COC(=O)CNC(=O)OCOc1ccc([N+](=O)[O-])c2cccnc12" reads 70.38

The measured Percentage of the compound remaining in dog liver microsome associated with CCC(C)C(C(=O)OC)N(C)C(=O)OCOc1ccc([N+](=O)[O-])c2cccnc12 (stereo not drawn) reads 14.94

---

- protocolDetails: Determination of water solubility in phosphate buffer
- Assay type: physicochemical
- experimentalContext: aqueous buffer, thermodynamic from solid; phosphate buffer pH 7.4, room temperature, 24 hours
# if value of solubility at 24 h reaches 40 µg/mL, tag 1 (yes); if it stays below, tag 0 (no)

molecule	group
CC(C)(C)OP(=O)(OCOc1ccc([N+](=O)[O-])c2cccnc12)OC(C)(C)C	1 (yes)
CN(C)C(=O)Oc1ccc([N+](=O)[O-])c2cccnc12 [Compound 78, 5-nitroquinolin-8-yl dimethylcarbamate]	1 (yes)
COC(=O)CN(C)C(=O)Oc1ccc([N+](=O)[O-])c2cccnc12	1 (yes)
CCC(=O)OCOc1ccc([N+](=O)[O-])c2cccnc12	1 (yes)

Check this molecule for solubility at 24 h at or above 40 µg/mL: "CN1CCN(C(=O)OCOc2ccc([N+](=O)[O-])c3cccnc23)CC1"
1 (yes)

Check this molecule for solubility at 24 h at or above 40 µg/mL: CCC(C)C(NC(=O)OCOc1ccc([N+](=O)[O-])c2cccnc12)C(=O)OC (centres unmarked)
0 (no)

Check this molecule for solubility at 24 h at or above 40 µg/mL: "O=C(O)CCC(=O)OCOc1ccc([N+](=O)[O-])c2cccnc12"
0 (no)

Check this molecule for solubility at 24 h at or above 40 µg/mL: "CCCCCCCC(=O)OCOc1ccc([N+](=O)[O-])c2cccnc12"
0 (no)

Check this molecule for solubility at 24 h at or above 40 µg/mL: "O=C(OCOc1ccc([N+](=O)[O-])c2cccnc12)[C@@H]1CCCN1C(=O)c1ccccn1"
1 (yes)

Check this molecule for solubility at 24 h at or above 40 µg/mL: "CC(=O)N[C@@H](Cc1ccc(O)cc1)C(=O)N1CCC[C@H]1C(=O)OCOc1ccc([N+](=O)[O-])c2cccnc12"
0 (no)

Check this molecule for solubility at 24 h at or above 40 µg/mL: "CSC[C@H](NC(C)=O)C(=O)OCOc1ccc([N+](=O)[O-])c2cccnc12"
1 (yes)

Check this molecule for solubility at 24 h at or above 40 µg/mL: "COCC(=O)OCOc1ccc([N+](=O)[O-])c2cccnc12"
0 (no)

Check this molecule for solubility at 24 h at or above 40 µg/mL: "Cc1oc(=O)oc1COc1ccc([N+](=O)[O-])c2cccnc12"
0 (no)

Cited source for all entries: patent US12152048B2
